Target: T1, human Claudin 18.2 (CLDN18.2) (human, UniProt P56856-2 1-261)
T1 construct: whole, on cells; recombinantly expressed on CHO, HEK293, NCI-N87, NUGC4 or PANC-1 cells; also called CHO-CLDN18.2
Assay: FACS on CHO-CLDN18.2 cells
MEASURED METRIC: pEC50
# pEC50 = -log10(concentration in molar units)

The following binders have reported results that may help.
• reference antibody 175D10 (xi175D10) (antibody, human IgG1, kappa, V domains shown, Fc variant D356/L358; also called chimeric 175D10) VH: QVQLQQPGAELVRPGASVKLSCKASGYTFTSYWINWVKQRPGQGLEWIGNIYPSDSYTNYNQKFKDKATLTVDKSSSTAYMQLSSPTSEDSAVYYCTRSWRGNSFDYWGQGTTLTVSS VL: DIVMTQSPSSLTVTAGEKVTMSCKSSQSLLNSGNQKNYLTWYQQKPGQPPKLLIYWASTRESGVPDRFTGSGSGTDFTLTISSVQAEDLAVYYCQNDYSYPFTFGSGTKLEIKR = 8.03
• 413H9F8-cp10 (antibody, V domains shown, humanized IgG; constant regions not specified) VH: EVQLVESGGGLVQPGGSLRLSCAASGFTFSSFGMHWVRQAPGKGLEWVSYISSGSSPIYYVDKLKGRFTISRDNAKNSLYLQMNSLRAEDTAVYYCARAGYAVRNALDYWGQGTLVTVSS VL: DIVMTQSPPTLSLSPGERVTLSCKSSQSLLNVGNQKNYLAWYQQKPGQAPKLLIYGASTRESGIPDRFSGSGSGTDFTLTISSLQPEDFAVYFCQNDLFYPLTFGGGTKVEIK = 8.43

Next, consider the following binder.
Give its pEC50 value. Item: 282A12F3 (T62A) (antibody, human IgG1, kappa, V domains shown, chimeric human IgG1, PTM site removed; also called 282A12F3-VH-NSA (T62A); 282A12 (T62A)) VH: QVQLKESGPVLVQPSQTLSLTCTVAGFSLTSYNVYWVRQPPGKGLEWMGVIWNTGATRYNSALKSRLSISKDTSKSQVFLKMNSLQTEDTATYYCARDSAMPAIPFAYWGQGTLVTVSS VL: DIVMTQSPSSLAVSAGETVTINCKSSQSLFGSVRQKNYLAWYQQKPGQSPKLLIYLASTRESGVPDRFIGSGSGTDFTLTISSVQAEDLAKYYCQQYYDIPWTFGGGTKLELKR 8.35
